System: DeltatarO mutant
Assay: S. aureus survival, RN4220 and DeltatarO strains – OD600, teichoic acid synthesis inhibitors, primary screen (AID 463173)
Conditions: S. aureus RN4220 wild type/DeltatarO growth, OD600, 18 h, active compounds read low, screened at 18.75 µg/mL (by protocol)
In all, about 52,000 compounds went through this assay and about 4,300 (8.3%) were called active. Shown is part of a subset that was picked to be rich in actives.
Hi! Just check whether survival is below 80%. Below gives rule met, equal or above gives rule not met.

molecule	assignedCategory
CCOc1ccc(NC(=O)c2ccc(-c3ccccc3)s2)cc1	rule not met
O=C(NCC(c1cccnc1)N1CCc2ccccc2C1)C(=O)Nc1ccccc1F (configuration not stated)	rule met
CC1CCc2onc(C(=O)N3CCN(c4cccc(Cl)c4)CC3)c2C1 (configuration not stated)	rule met
Cc1ccc2c(=O)cc(C(=O)Nc3ccc(S(=O)(=O)N4CCCCCC4)cc3)oc2c1	rule not met
O=C(c1cc2ccc3cccnc3c2[nH]1)N1CCN(c2cccc(C(F)(F)F)c2)CC1	rule met
Cc1cc(Nc2ccc(F)cc2)n2c(nc3ccccc32)c1C#N	rule not met

(Q) Below 80% on survival? Entry CCOc1ccc(OCC)c(NC(=O)c2ccc(-c3ccccc3)s2)c1
(A) rule met

(Q) Strictly below 80% in survival? CC(C)CN1CCc2nc(N3CCN(c4ncccn4)CC3)ncc2C1
(A) rule met

(Q) Input Cc1cc2oc(C(=O)Nc3ccc(S(=O)(=O)N4CCC(C)CC4)cc3)cc(=O)c2cc1C ; condition: survival strictly below 80%. Does it hold?
(A) rule met

(Q) Hello, I'm reviewing records and need to know if survival of Cc1cc2oc(C(=O)Nc3ccc(S(=O)(=O)N4CCCCCC4)cc3)cc(=O)c2cc1C is below 80%. Could you check?
(A) rule met

(Q) Bench note: check whether CSc1ncc(C(=O)Nc2ccc(F)cc2F)c(-c2ccccc2)n1 shows survival below 80%
(A) rule met
